# Measured Target: HEK 293 GPR73 (prokineticin 1 receptor) expressing cells (Homo sapiens, UniProt Q8TCW9)
# Sequence (Q8TCW9 whole entry): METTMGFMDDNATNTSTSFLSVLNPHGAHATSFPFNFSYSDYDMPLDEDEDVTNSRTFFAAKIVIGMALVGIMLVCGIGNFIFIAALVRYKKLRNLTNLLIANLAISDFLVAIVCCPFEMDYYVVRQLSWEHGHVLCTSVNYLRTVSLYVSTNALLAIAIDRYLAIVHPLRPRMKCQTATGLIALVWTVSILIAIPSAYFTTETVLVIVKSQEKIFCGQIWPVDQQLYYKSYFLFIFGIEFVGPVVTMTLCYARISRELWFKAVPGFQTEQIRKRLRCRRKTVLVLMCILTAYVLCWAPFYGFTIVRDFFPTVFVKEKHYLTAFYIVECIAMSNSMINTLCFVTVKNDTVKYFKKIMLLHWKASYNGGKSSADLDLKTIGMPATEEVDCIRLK
# Experiment Description: PK1 functional assay: screening for PK1 antagonists on the FLIPR (calcium fluorescence)
# Test Context: HEK 293 GPR73 cells, PK1 ligand at EC50, multiple values = repeat tests, read-out: Ca^2+ Mobilization IC50
pIC50: −log10 of the molar value.
Assay Metric: pIC50

Some compounds with known pIC50 results, for comparison:
{"Compound": "COc1ccc(Cn2c(NCCNC(=N)NC(C)=O)nc(=O)n(Cc3ccc(F)cc3)c2=O)cc1 [Cpd 151]", "Assay Metric": "pIC50", "Numeric Result": 8.52}
{"Compound": "COc1ccc(Cn2c(NCCNC(=N)Nc3ccc4c(c3)OCO4)nc(=O)n(Cc3ccc(F)cc3)c2=O)cc1 [Cpd 92]", "Assay Metric": "pIC50", "Numeric Result": 7.40}
{"Compound": "COc1ccc(CCCn2c(=O)nc(NCCNC(=N)N)n(Cc3ccc(OC)cc3)c2=O)cc1 [Cpd 146]", "Assay Metric": "pIC50", "Numeric Result": 6.17}
{"Compound": "COc1ccc(Cn2c(NCCN3CCNC3=N)nc(=O)n(Cc3ccc(Cl)c(Cl)c3)c2=O)cc1 [Cpd 60]", "Assay Metric": "pIC50", "Numeric Result": 7.27}
{"Compound": "COc1ccc(Cn2c(NCCNC(=N)NCc3ccco3)nc(=O)n(Cc3ccc(Cl)c(Cl)c3)c2=O)cc1 [Cpd 66]", "Assay Metric": "pIC50", "Numeric Result": 7.64}

I = COc1ccc(Cn2c(NCCNC(=N)Nc3ccc(O)cc3)nc(=O)n(Cc3ccc(F)cc3)c2=O)cc1 [Cpd 128]
II = COc1ccc(Cn2c(SCCNC(=N)N)cc(=O)n(Cc3ccc(OC)cc3)c2=O)cc1 [Cpd 159]
q: Please state the entry with greater pIC50 among I and II . Kindly state the label of the option you pick.
a: II
